Target Or System: wild-type EGFR (Homo sapiens, UniProt P00533)
Construct: purchased Signalchem
Sequence (P00533 25-1210): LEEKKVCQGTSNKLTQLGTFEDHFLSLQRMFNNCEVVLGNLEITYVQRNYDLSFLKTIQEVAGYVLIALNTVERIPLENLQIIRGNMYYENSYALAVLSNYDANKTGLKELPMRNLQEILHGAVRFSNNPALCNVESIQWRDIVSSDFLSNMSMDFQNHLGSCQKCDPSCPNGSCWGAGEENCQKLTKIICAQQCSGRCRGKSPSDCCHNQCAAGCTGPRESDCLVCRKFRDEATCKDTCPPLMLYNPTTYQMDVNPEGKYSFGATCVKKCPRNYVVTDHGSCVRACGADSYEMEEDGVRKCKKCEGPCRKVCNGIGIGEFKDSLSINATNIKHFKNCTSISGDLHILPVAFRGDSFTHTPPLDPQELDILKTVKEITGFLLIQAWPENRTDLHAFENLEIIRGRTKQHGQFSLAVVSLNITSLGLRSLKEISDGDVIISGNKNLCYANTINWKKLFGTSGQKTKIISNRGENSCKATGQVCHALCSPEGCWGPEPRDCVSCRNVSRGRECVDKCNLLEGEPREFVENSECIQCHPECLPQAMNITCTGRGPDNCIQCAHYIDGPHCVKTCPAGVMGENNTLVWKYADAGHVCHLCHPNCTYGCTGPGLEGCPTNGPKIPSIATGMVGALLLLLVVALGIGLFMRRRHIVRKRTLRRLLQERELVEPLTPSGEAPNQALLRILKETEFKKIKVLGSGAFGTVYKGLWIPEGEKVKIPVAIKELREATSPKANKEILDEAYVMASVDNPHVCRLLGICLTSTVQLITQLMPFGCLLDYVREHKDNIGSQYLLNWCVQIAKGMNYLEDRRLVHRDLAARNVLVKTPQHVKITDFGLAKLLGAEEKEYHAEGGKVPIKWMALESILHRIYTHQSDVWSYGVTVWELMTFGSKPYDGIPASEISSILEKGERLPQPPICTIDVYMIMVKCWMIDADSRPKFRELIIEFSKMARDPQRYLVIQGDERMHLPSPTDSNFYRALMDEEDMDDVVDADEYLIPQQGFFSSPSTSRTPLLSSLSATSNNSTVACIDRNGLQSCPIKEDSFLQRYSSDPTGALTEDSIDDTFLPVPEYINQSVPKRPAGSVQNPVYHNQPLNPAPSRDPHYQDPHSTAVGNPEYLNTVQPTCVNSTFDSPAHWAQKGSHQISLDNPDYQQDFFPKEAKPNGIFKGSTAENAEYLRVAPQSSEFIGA
Test Method Notes: Enzymology experiment in vitro (HTRF/FRET kinase activity), wild-type EGFR
Assay type: biochemical
Test Settings: HTRF KinEASE-TK, read-out: EGFR (WT) IC50
Metric Name: IC50 (nM)

{"columns": ["Molecule", "IC50 [nM]"],
 "data": [
  ["COc1cc(N2CCC3(CCOCC3)CC2)c(-c2cnn(C)c2)cc1Nc1ncc(Br)c(Nc2ccc3nccnc3c2P(C)(C)=O)n1 [compound 215]", 7.3],
  ["COc1cc(N2CCN(C3CC3)CC2)c(-c2cnn(C)c2)cc1Nc1ncc(Br)c(Nc2ccc3nccnc3c2P(C)(C)=O)n1 [compound 102]", 1.49],
  ["COc1cc(N2CCC(N3CCN(CC(F)F)CC3)CC2)c(-c2cnn(C)c2)cc1Nc1ncc(Br)c(Nc2ccc3nccnc3c2P(C)(C)=O)n1 [compound 186]", 1.19],
  ["COc1cc(N2CCC(N3CCO[C@@H](C)C3)CC2)c(-c2cnn(C)c2)cc1Nc1ncc(Br)c(Nc2ccc3nccnc3c2P(C)(C)=O)n1 [compound 165]", 1.36]
]}

(P) COc1cc(N2CCO[C@@H](C)C2)c(-c2cnn(C)c2)cc1Nc1ncc(Br)c(Nc2ccc3nccnc3c2P(C)(C)=O)n1 [compound 170]
(Q) COc1cc(F)c(-c2cnn(C)c2)cc1Nc1ncc(Br)c(Nc2ccc3nccnc3c2P(C)(C)=O)n1 [compound 84]
Prompt: Given P and Q , report the one with the higher recorded IC50. Lab note: record the label of whichever item you select.
Completion: Q
